- Test system: 349418-098-R-PDC complex spheroid viability
- ASSAY_NOTES: Anticancer human tumor 349418-098-R-PDC patient-derived lung adenocarcinoma cell line growth inhibition
- STATED_CONDITIONS: second compound 0.1 µM; first compound 0.00949 µM; stronger effect = lower value
Give viability, T/C for every item shown.
Numbers only, in %.

A selection of reference data follows.
# MOLECULE, UNIT_SYMBOL, viability, T/C
records = [
    ("CCc1c2c(nc3ccc(O)cc13)-c1cc3c(c(=O)n1C2)COC(=O)[C@]3(O)CC + NC1CCC(NC2CC2c2ccccc2)CC1", "%", 2.12),
    ("Nc1ccccc1NC(=O)c1ccc(CNC(=O)OCc2cccnc2)cc1 + NC1CC1c1ccc(-c2cccc(O)c2)cc1", "%", 94),
    ("CCN(c1cc(-c2ccc(CN3CCOCC3)cc2)cc(C(=O)NCc2c(C)cc(C)[nH]c2=O)c1C)C1CCOCC1 + NC1CCC(NC2CC2c2ccccc2)CC1", "%", 107),
    ("COc1cc(C2c3cc4c(cc3C(OC3OC5COC(C)OC5C(O)C3O)C3COC(=O)C23)OCO4)cc(OC)c1O (stereo not given) + NC1CCC(NC2CC2c2ccccc2)CC1", "%", 105),
]

Consider the additional molecule presented here.
INPUT: Look up and state reported viability, T/C for Nc1ccn(C2OC(CO)C(O)C2(F)F)c(=O)n1 (stereo not given) + NC1CC1c1ccc(-c2cccc(O)c2)cc1
OUTPUT: 4.34

* * *

- System: 349418-098-R-PDC complex spheroid viability
- ASSAY_NOTES: Anticancer human tumor 349418-098-R-PDC cell line growth inhibition;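 note: spheroids exposed to agents for seven days before readout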
- STATED_CONDITIONS: curve of first compound; second compound 1 µM
Give pIC50 for every item shown.
Answers are plain numbers, as −log10 of the molar value.

# COMPOUND, EXPERIMENTAL_SYSTEM, pIC50
measured = [
    ("Nc1ncn(C2CC(O)C(CO)S2)c(=O)n1 (stereo not drawn) + NC1CCC(NC2CC2c2ccccc2)CC1", "349418-098-R-PDC complex spheroid viability", 7.69),
]

Consider the additional compound presented here.
INPUT: Report pIC50 from 349418-098-R-PDC complex spheroid viability testing of CC(C)CC(NC(=O)CNC(=O)c1cc(Cl)ccc1Cl)B1OC(=O)CC(CC(=O)O)(C(=O)O)O1 (stereo not drawn) + NC1CC1c1ccc(-c2cccc(O)c2)cc1
OUTPUT: 9.10

* * *

- Test system: 349418-098-R-PDC complex spheroid viability
- ASSAY_NOTES: Anticancer human tumor 349418-098-R-PDC cell line growth inhibition;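 note: spheroids exposed to agents for seven days before readout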
- STATED_CONDITIONS: curve of first compound; second compound 1 µM
Give log10 IC50 for every item shown.
Scale type: logarithmic (base 10). Underlying IC50 unit: nM.

A selection of reference data follows.
# COMPOUND, EXPERIMENTAL_SYSTEM, log10 IC50
data = [
    ("CC1COCCN1c1cc(C2(S(C)(=N)=O)CC2)nc(-c2ccnc3[nH]ccc23)n1 (centres undefined) + NC1CCC(NC2CC2c2ccccc2)CC1", "349418-098-R-PDC complex spheroid viability", 2.69),
    ("O=C(C=Cc1cccc(S(=O)(=O)Nc2ccccc2)c1)NO + NC1CCC(NC2CC2c2ccccc2)CC1", "349418-098-R-PDC complex spheroid viability", 2.08),
    ("COc1ccc([C@@H](O)c2cc(-c3ncnc4cc(N5CCOCC5)ccc34)c(F)cc2Cl)nn1 + NC1CCC(NC2CC2c2ccccc2)CC1", "349418-098-R-PDC complex spheroid viability", 2.67),
]

Consider the following items and state reported log10 IC50 for each.
1. COc1cc(Nc2ncc3c(n2)-c2ccc(Cl)cc2C(c2c(F)cccc2OC)=NC3)ccc1C(=O)O + NC1CCC(NC2CC2c2ccccc2)CC1
2. CC1(C)CCC(CN2CCN(c3ccc(C(=O)NS(=O)(=O)c4ccc(NCC5CCOCC5)c([N+](=O)[O-])c4)c(Oc4cnc5[nH]ccc5c4)c3)CC2)=C(c2ccc(Cl)cc2)C1 + NC1CCC(NC2CC2c2ccccc2)CC1
3. COc1ccc([C@@H](O)c2cc(-c3ncnc4cc(N5CCOCC5)ccc34)c(F)cc2Cl)nn1 + NC1CC1c1ccc(-c2cccc(O)c2)cc1
4. O=C(C=Cc1cccc(S(=O)(=O)Nc2ccccc2)c1)NO + NC1CC1c1ccc(-c2cccc(O)c2)cc1
5. COc1cc(C2c3cc4c(cc3C(OC3OC5COC(C)OC5C(O)C3O)C3COC(=O)C23)OCO4)cc(OC)c1O (centres undefined) + NC1CC1c1ccc(-c2cccc(O)c2)cc1

OUTPUT:
1: 1.45; 2: 3.63; 3: 2.81; 4: 1.73; 5: 1.83

meta.source: PubChem BioAssay AID1918936
